Data credit: ChEMBL document CHEMBL4665764

Measured IC50, listed per entry.
- protocol-text: Antiproliferative activity against Con A-induced BALB/c mouse T cell after 48 hrs by CCK8 assay
- Format: functional, tissue-based, T cell line

Give the measured IC50 for C#CCOC(=O)[C@]1(C)CC[C@]2(C)CC[C@]3(C)C4=C[C@@H](c5c[nH]c6ccc(F)cc56)c5c(cc(OC(C)=O)c(OC(C)=O)c5C)[C@]4(C)CC[C@@]3(C)[C@@H]2C1
≥ 10 µM

Give the measured IC50 for C#CCOC(=O)[C@]1(C)CC[C@]2(C)CC[C@]3(C)C4=C[C@@H](c5c[nH]c6c(C)cccc56)c5c(cc(OC(C)=O)c(OC(C)=O)c5C)[C@]4(C)CC[C@@]3(C)[C@@H]2C1
≥ 10 µM

Give the measured IC50 for C#CCOC(=O)[C@]1(C)CC[C@]2(C)CC[C@]3(C)C4=C[C@@H](c5c[nH]c6cc(OC)ccc56)c5c(cc(OC(C)=O)c(OC(C)=O)c5C)[C@]4(C)CC[C@@]3(C)[C@@H]2C1
≥ 10 µM
